For each record, check the reported melting point: if it is below 200 °C write met, else write not met.

CS(=O)(=O)c1ccccc1S(=O)(=O)Nc1ccc2[nH]nc(-c3cccc(C#N)c3)c2c1
not met
O=S(=O)(Nc1ccc2[nH]ncc2c1)c1ccc(Cl)c(Cl)c1
not met
O=S(=O)(Nc1ccc2[nH]nc(-c3ccccc3)c2c1)c1ccc(Cl)c(Cl)c1
not met
CS(=O)(=O)c1ccccc1S(=O)(=O)Nc1ccc2[nH]nc(/C=C/c3ccc(F)cc3)c2c1
not met
CC(=O)Nc1ccc(S(=O)(=O)Nc2ccc3[nH]nc(-c4ccccc4)c3c2)cc1
met
N#Cc1n[nH]c2ccc(NS(=O)(=O)c3cccc(F)c3)cc12
not met
O=S(=O)(Nc1ccc2[nH]nc(-c3ccccc3)c2c1)C1CCCCC1
met
CS(=O)(=O)c1ccccc1S(=O)(=O)Nc1ccc2[nH]nc(-c3ccc(F)cc3)c2c1
not met
O=S(=O)(Nc1ccc2[nH]ncc2c1)c1ccccc1 [Example 24, N-(1H-Indazol-5-yl)benzenesulfonamide]
met
CS(=O)(=O)c1ccccc1S(=O)(=O)Nc1ccc2[nH]nc(-c3ccsc3)c2c1
not met

[in] Hi there! Is melting point for CS(=O)(=O)c1ccccc1S(=O)(=O)Nc1ccc2[nH]nc(-c3cccc4ccccc34)c2c1 below 200 °C, do you know?
[out] met

[in] Hi there! Is melting point for O=S(=O)(Nc1ccc2[nH]nc(-c3ccccc3)c2c1)C1CCNCC1 below 200 °C, do you know?
[out] not met

[in] Hi there! Is melting point for CS(=O)(=O)c1ccccc1S(=O)(=O)Nc1ccc2[nH]nc(/C=C/C(=O)O)c2c1.Cl below 200 °C, do you know?
[out] met

[in] Hi there! Is melting point for CS(=O)(=O)c1ccccc1S(=O)(=O)Nc1ccc2[nH]nc(-c3ccc(N)cc3)c2c1 below 200 °C, do you know?
[out] met
